Values from paper PMC10786919

Some compounds, each annotated with its measured solubility kinetic.
assay name: Solubility assay (kinetic solubility, PBS pH 7)
Format: physicochemical
run parameters: pH 7, aqueous buffer, kinetic from dmso stock, pH 7, PBS; read-out: Solubility
Positions of bridges follow the written chain, without caps; N, C: chain ends. Non-standard residues stand in square brackets, D forms with d. Residues, ends and D or L forms follow the SMILES beside them. Lys(N3) = [N-]=[N+]=NCCCC[C@H](N)C(=O)O; R8 = C=CCCCCCC[C@@](C)(N)C(=O)O; Cba = N[C@@H](CC1CCC1)C(=O)O; S5 = C=CCCC[C@](C)(N)C(=O)O; βAla = NCCC(=O)O
Number only, in µM; omit the unit.

CC(=O)N[C@@H](CCCCN=[N+]=[N-])C(=O)NCCC(=O)N[C@H](C(=O)N[C@H](C(=O)N[C@@H](Cc1ccccc1)C(=O)N[C@]1(C)CCCCCCC=CCCC[C@@](C)(C(=O)N[C@@H](CO)C(=O)N[C@@H](C)C(=O)N[C@@H](C)C(N)=O)NC(=O)[C@H](CC2CCC2)NC(=O)[C@H](CCC(N)=O)NC(=O)[C@H](C(C)C)NC(=O)[C@H](Cc2c[nH]c3ccccc23)NC(=O)[C@H](Cc2ccc(O)cc2)NC(=O)[C@H](C(C)C)NC1=O)[C@@H](C)O)C(C)C [MP-490] (Ac-[Lys(N3)][βAla]VTF[R8]VYWVQ[Cba][S5]SAA-NH2; staple 6-13)	3

Switching to the query record.
Form field solubility kinetic, entry CC(=O)N[C@@H](CCCCN=[N+]=[N-])C(=O)NCCC(=O)N[C@@H](CC(C)C)C(=O)N[C@H](C(=O)N[C@@H](Cc1ccccc1)C(=O)N[C@]1(C)CCCCCCC=CCCC[C@@](C)(C(=O)N[C@@H](CO)C(=O)N[C@@H](C)C(=O)N[C@@H](C)C(N)=O)NC(=O)[C@H](CC2CCC2)NC(=O)[C@H](CCC(N)=O)NC(=O)[C@H](C)NC(=O)[C@H](C)NC(=O)[C@H](Cc2ccc(O)cc2)NC(=O)[C@H](CCC(=O)O)NC1=O)[C@@H](C)O [MP-893, AZIDE-ATSP-7041(W7A)] : 51

###

Some compounds, each annotated with its measured logD.
assay name: Experimental LogD (partition coefficient)
run parameters: not stated, Partition Coeff LogD
Positions of bridges follow the written chain, without caps; N, C: chain ends. Non-standard residues stand in square brackets, D forms with d. Residues, ends and D or L forms follow the SMILES beside them. Lys(N3) = [N-]=[N+]=NCCCC[C@H](N)C(=O)O; R8 = C=CCCCCCC[C@@](C)(N)C(=O)O; Cba = N[C@@H](CC1CCC1)C(=O)O; S5 = C=CCCC[C@](C)(N)C(=O)O; βAla = NCCC(=O)O; Sar = CNCC(=O)O
Give your answer as a number; write no unit.

Example entries and their recorded answers appear below.
CC(=O)N[C@@H](CCCCN=[N+]=[N-])C(=O)NCCC(=O)N[C@@H](CC(C)C)C(=O)N[C@H](C(=O)N[C@@H](Cc1ccccc1)C(=O)N[C@]1(C)CCCCCCC=CCCC[C@@](C)(C(=O)N[C@@H](CO)C(=O)N[C@@H](C)C(=O)N[C@@H](C)C(N)=O)NC(=O)[C@H](CC2CCC2)NC(=O)[C@H](CCC(N)=O)NC(=O)CN(C)C(=O)[C@H](Cc2c[nH]c3ccccc23)NC(=O)[C@H](Cc2ccc(O)cc2)NC(=O)[C@H](CCC(=O)O)NC1=O)[C@@H](C)O [MP-351] (Ac-[Lys(N3)][βAla]LTF[R8]EYW[Sar]Q[Cba][S5]SAA-NH2; staple 6-13)	2.26
CC(=O)N[C@H](C(=O)N[C@@H](CO)C(=O)N[C@@H](Cc1ccccc1)C(=O)N[C@]1(C)CCCCCCC=CCCC[C@@](C)(C(N)=O)NC(=O)[C@H](CC(C)C)NC(=O)[C@H](CC(C)C)NC(=O)[C@H](C)NC(=O)[C@H](Cc2c[nH]c3ccccc23)NC(=O)[C@H](Cc2ccc(O)cc2)NC(=O)[C@H](CCC(=O)O)NC1=O)[C@@H](C)O	2.69

Switching to the query record.
Form field logD, entry CC(=O)N[C@@H](CCCCN=[N+]=[N-])C(=O)NCCC(=O)N[C@@H](CC(C)C)C(=O)N[C@H](C(=O)N[C@@H](Cc1ccccc1)C(=O)N[C@]1(C)CCCCCCC=CCCC[C@@](C)(C(=O)N[C@@H](CO)C(=O)N[C@@H](C)C(=O)N[C@@H](C)C(N)=O)NC(=O)[C@H](CC2CCC2)NC(=O)[C@H](CCC(N)=O)NC(=O)[C@H](C)NC(=O)[C@H](Cc2c[nH]c3ccccc23)NC(=O)[C@H](Cc2ccc(O)cc2)NC(=O)[C@@H](C)NC1=O)[C@@H](C)O [MP-473] (Ac-[Lys(N3)][βAla]LTF[R8][dA]YWAQ[Cba][S5]SAA-NH2; staple 6-13) : 3.49
